Provenance of the data: patent US20240270821A1

biological target: human GLP1-R (Homo sapiens); experiment: GLP1-R internalization assay in HEK293 cells; format: cell-based; conditions: HEK293 cells expressing SNAP-GLP-1R; read-out: GLP1R Internalization EC50
Sequence (P43220 24-463): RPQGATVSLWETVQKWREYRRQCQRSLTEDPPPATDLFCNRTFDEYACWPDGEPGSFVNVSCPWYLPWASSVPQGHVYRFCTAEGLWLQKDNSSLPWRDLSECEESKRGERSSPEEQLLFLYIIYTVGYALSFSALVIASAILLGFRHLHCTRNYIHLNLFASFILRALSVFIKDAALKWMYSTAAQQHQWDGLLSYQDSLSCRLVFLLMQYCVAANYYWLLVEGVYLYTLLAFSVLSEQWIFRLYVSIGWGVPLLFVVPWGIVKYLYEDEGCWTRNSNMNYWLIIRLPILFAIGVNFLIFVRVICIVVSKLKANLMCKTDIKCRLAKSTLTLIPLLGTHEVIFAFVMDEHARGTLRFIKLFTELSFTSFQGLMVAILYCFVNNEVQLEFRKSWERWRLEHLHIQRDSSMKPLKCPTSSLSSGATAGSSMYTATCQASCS
Starred links: 1 amine or outer side, 2 acyl side, 3 side chain; linkers in the order of their positions; H or OH if unused. Non-standard residues stand in square brackets, D forms with d. Groups on a side chain read outwards from the residue. *: point of attachment. C20 diacid = O=C(O)CCCCCCCCCCCCCCCCCCC(=O)*; C18 diacid = O=C(O)CCCCCCCCCCCCCCCCC(=O)*; αMePhe(2-F) = C[C@](N)(Cc1ccccc1F)C(=O)O; γGlu = O=C(O)[C@H](CCC(=O)[*:2])N[*:1]; 4Pal = N[C@@H](Cc1ccncc1)C(=O)O; αMeL = CC(C)C[C@](C)(N)C(=O)O; αMeS = C[C@](N)(CO)C(=O)O; Orn = NCCC[C@H](N)C(=O)O; AEEA = NCCOCCOCC(=O)O; Aib = CC(C)(N)C(=O)O
Class (by EC50) -- interval 1 (below 40 nM), interval 2 (40 nM to below 60 nM), interval 3 (60 nM or more)

Query: Band assignment needed for H-Y[Aib]QGTFTSDFS[Orn][αMeL]LDKK([AEEA-γGlu-C18 diacid])AQ[Aib]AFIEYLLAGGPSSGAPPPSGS-NH2 [Example 95] please.
Reply: interval 1

Query: Which EC50 band matches H-Y[Aib]QGTFTSDFS[Orn][αMeL]LDKK([AEEA-γGlu-C18 diacid])AQ[Aib]AFIEYLLE[dA]GPSSGAPPPSG[4Pal]-NH2 [Example 211] ?
Reply: interval 2

Query: For this substance, which bin applies? H-Y[Aib]QGTFTSDFS[Orn][αMeL]LDKK([AEEA-γGlu-C18 diacid])AQ[Aib]AFIEYLLE[Aib]GPSSGAPPPSGT-NH2 [Example 200]
Reply: interval 3

Query: Hello team, could you let me know which band the following substance falls into: H-Y[Aib]QGTFTSDYSK[αMeL]LDKK([AEEA-γGlu-C18 diacid])AQ[Aib]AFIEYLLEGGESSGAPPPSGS-NH2 [Example 358]
Reply: interval 1

Query: Lab log: H-Y[Aib]QGTFTSDYSI[αMeL]LDKIAAK([AEEA-AEEA-γGlu-C20 diacid])QFVQWLIE[Aib]GPSSGEPPPSEG-NH2 [Example 323] — assign EC50 category
Reply: interval 1

Query: # classify by EC50 band: H-Y[Aib]QGT[αMePhe(2-F)]TSD[4Pal][αMeS]ILLD[Orn]K([γGlu-γGlu-C18 diacid])AQ[Aib][Orn]FI[dE]YLIEGGPSSGEPPPSGTGE-NH2 [Example 548]
Reply: interval 1

Query: Band for the recorded EC50 of H-Y[Aib]QGTFTSDFS[Orn][αMeL]LDKK([AEEA-AEEA-γGlu-C18 diacid])AQ[Aib]AFIEYLLE[Aib]GPSSGEPPPSGT-NH2 [Example 167] ?
Reply: interval 3

Query: Exercise: read the entry H-Y[Aib]QGTFTSDFS[Orn][αMeL]LDKK([AEEA-AEEA-γGlu-C18 diacid])AQ[Aib]AFIEYLLE[Aib]GESSGAPPPSGS-NH2 [Example 179] and state which class it falls under.
Reply: interval 3

Query: Could you place H-Y[Aib]QGTFTSDFS[Orn][αMeL]LDKK([AEEA-γGlu-C18 diacid])AQ[Aib]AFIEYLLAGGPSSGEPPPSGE-NH2 [Example 97] in its proper category? Many thanks.
Reply: interval 2
